Measured logD, listed per entry.
Assay: Lipophilicity, log D of the compound at pH 7.4 by HPLC analysis
Assay type: physicochemical
Conditions: buffer
// no unit, no text: just the number

Example entries and their recorded answers appear below.
1) Cn1c(=O)n(-c2ccc(C(C)(C)C#N)cc2)c2c3ccccc3ncc21 | 4.69
2) Cn1c(=O)n(-c2ccc(C(C)(C)C#N)cc2)c2c3cc(-c4cnc5ccccc5c4)ccc3ncc21 [DACTOLISIB] | 6.44

Then there is this compound:
Request: // logD lookup, key: COc1ccc(-n2c(=O)n(C)c3cnc4ccc(-c5ccncc5)cc4c32)cc1
Response: 5.32

====

Measured CC50 at 48 h, listed per entry.
Assay: Cytotoxicity against human HepG2 cells after 48 hrs by Celltiter-Glo assay
Assay type: cell-based
Conditions: HepG2 cells, read-out: TC50

1) Cn1c(=O)n(-c2ccc(C#N)cc2)c2c3cc(-c4cnc5ccccc5c4)ccc3ncc21 | > 50 µM
2) CN1CCN(c2ccc3ncc4c(c3c2)n(-c2ccc(C(C)(C)C#N)cc2)c(=O)n4C)CC1 | > 50 µM
3) Cn1c(=O)n(-c2ccc(C(C)(C)C#N)cc2)c2c3cc(-c4ccncc4)ccc3ncc21 | 3.43 µM

Then there is this molecule:
Request: // CC50 at 48 h lookup, key: CC(=O)Nc1ccc2ncc3c(c2c1)n(-c1ccc(C(C)(C)C#N)cc1)c(=O)n3C
Response: > 50 µM
